# testTarget: HLA B*5401 (Homo sapiens, UniProt P01889, A329T/C349S/D138N/D201E/E176V/E187T/E204Q/E69G/I76V/K202T/L119W/R155S/R180L/S121T/S35A/S48A/V127L/V306I/V36M/Y140L)
# Assay type: binding
Hi! Just check whether Normalized average relative binding affinity (ARB), HLA B*5401 is below 0.03. Below gives met, equal or above gives not met.

Task item: Answer whether the sequence XXLXXXXXX [3064.0050] has Normalized average relative binding affinity (ARB), HLA B*5401 strictly less than 0.03
Reply: not met

Task item: Answer whether the sequence XXVXXXXXX [3064.0058] has Normalized average relative binding affinity (ARB), HLA B*5401 strictly less than 0.03
Reply: not met

Task item: Answer whether the sequence KXXXXXXXX [3064.0009] has Normalized average relative binding affinity (ARB), HLA B*5401 strictly less than 0.03
Reply: not met

Task item: Answer whether the sequence XXIXXXXXX [3064.0048] has Normalized average relative binding affinity (ARB), HLA B*5401 strictly less than 0.03
Reply: not met

Task item: Answer whether the sequence XYXXXXXXX [3064.0040] has Normalized average relative binding affinity (ARB), HLA B*5401 strictly less than 0.03
Reply: met

Task item: Answer whether the sequence XXCXXXXXX [3064.0042] has Normalized average relative binding affinity (ARB), HLA B*5401 strictly less than 0.03
Reply: met

* * *

# testTarget: HLA A*3001 (Homo sapiens, UniProt P04439, D140H/D185E/E176W/F33S/G80R/H175R/K168Q/R138E/R41S)
# protocol: biochemical
Where a SMILES comes first, the peptide text is derived from it.
Hi! Just check whether IC50 is below 20 nM. Below gives criterion met, equal or above gives criterion not met.

Task item: Answer whether the compound CSCC[C@H](NC(=O)[C@H](CCCCN)NC(=O)[C@H](CCCCN)NC(=O)[C@H](Cc1ccc(O)cc1)NC(=O)[C@H](CCCNC(=N)N)NC(=O)[C@H](C)NC(=O)[C@@H](N)CCCNC(=N)N)C(=O)N[C@@H](CC(C)C)C(=O)N[C@@H](CCCCN)C(=O)O [3102.0172] (H-RARYKKMLK-OH) has IC50 strictly less than 20 nM
Reply: criterion met

Task item: Answer whether the compound CC(C)C[C@H](NC(=O)[C@H](Cc1c[nH]c2ccccc12)NC(=O)[C@H](CCCCN)NC(=O)[C@@H](NC(=O)[C@@H](N)CCCCN)C(C)C)C(=O)N[C@@H](CCC(N)=O)C(=O)N[C@@H](CC(N)=O)C(=O)N[C@@H](CO)C(=O)N[C@H](C(=O)O)C(C)C [3102.0194] (H-KVKWLQNSV-OH) has IC50 strictly less than 20 nM
Reply: criterion met

Task item: Answer whether the compound CC[C@H](C)[C@H](NC(=O)[C@H](CCSC)NC(=O)[C@H](CCCCN)NC(=O)[C@@H](NC(=O)[C@@H](N)CC(C)C)C(C)C)C(=O)N[C@@H](CC(N)=O)C(=O)N[C@@H](Cc1c[nH]cn1)C(=O)N[C@@H](CC(C)C)C(=O)N[C@@H](CCCCN)C(=O)O [3102.0010] (H-LVKMINHLK-OH) has IC50 strictly less than 20 nM
Reply: criterion not met

Task item: Answer whether the compound CC(C)C[C@H](NC(=O)[C@H](CC(N)=O)NC(=O)[C@@H](NC(=O)[C@H](CC(C)C)NC(=O)[C@H](CCCNC(=N)N)NC(=O)[C@H](CCC(N)=O)NC(=O)[C@@H](N)CCCCN)[C@@H](C)O)C(=O)N[C@@H](CCC(=O)O)C(=O)N[C@@H](CCCCN)C(=O)O [3102.0243] (H-KQRLTNLEK-OH) has IC50 strictly less than 20 nM
Reply: criterion met

Task item: Answer whether the compound C[C@@H](O)[C@H](N)C(=O)N[C@@H](Cc1ccccc1)C(=O)N[C@@H](CCCNC(=N)N)C(=O)N[C@@H](CCC(=O)O)C(=O)N[C@@H](CCCNC(=N)N)C(=O)N[C@@H](Cc1ccc(O)cc1)C(=O)N[C@@H](CO)C(=O)N[C@@H](Cc1ccc(O)cc1)C(=O)N[C@@H](CCCCN)C(=O)O [3102.0221] (H-TFRERYSYK-OH) has IC50 strictly less than 20 nM
Reply: criterion met

Task item: Answer whether the compound CC[C@H](C)[C@H](NC(=O)[C@H](CCC(N)=O)NC(=O)[C@H](CCC(=O)O)NC(=O)[C@H](CCCNC(=N)N)NC(=O)[C@H](C)NC(=O)[C@@H](N)CCCNC(=N)N)C(=O)N[C@@H](CO)C(=O)N[C@@H](CC(N)=O)C(=O)N[C@@H](CC(C)C)C(=O)O [3102.0237] (H-RAREQISNL-OH) has IC50 strictly less than 20 nM
Reply: criterion met

Task item: Answer whether the compound CSCC[C@H](NC(=O)[C@@H]1CCCN1C(=O)[C@H](CC(C)C)NC(=O)[C@H](CO)NC(=O)[C@H](CCC(=O)O)NC(=O)[C@H](CCCCN)NC(=O)[C@H](CC(N)=O)NC(=O)[C@@H](N)CCCCN)C(=O)N[C@@H](CC(C)C)C(=O)O [3102.0195] (H-KNKESLPML-OH) has IC50 strictly less than 20 nM
Reply: criterion met

Task item: Answer whether the compound CC(C)C[C@H](NC(=O)[C@H](CCCNC(=N)N)NC(=O)[C@H](Cc1ccc(O)cc1)NC(=O)[C@H](CCC(=O)O)NC(=O)[C@H](CCC(N)=O)NC(=O)[C@H](Cc1ccccc1)NC(=O)[C@@H](NC(=O)[C@@H](N)Cc1c[nH]cn1)C(C)C)C(=O)N[C@@H](CCCCN)C(=O)O [3102.0284] (H-HVFQEYRLK-OH) has IC50 strictly less than 20 nM
Reply: criterion not met

Task item: Answer whether the compound CC[C@H](C)[C@H](NC(=O)[C@@H](N)Cc1ccccc1)C(=O)N[C@@H](Cc1ccccc1)C(=O)N[C@@H](CC(C)C)C(=O)N[C@@H](CCCCN)C(=O)N[C@@H](CCCCN)C(=O)N[C@@H](CC(N)=O)C(=O)N[C@@H](CCC(=O)O)C(=O)N[C@@H](CC(C)C)C(=O)O [3102.0673] (H-FIFLKKNEL-OH) has IC50 strictly less than 20 nM
Reply: criterion not met

Task item: Answer whether the compound CC(C)C[C@H](NC(=O)[C@@H](N)CCCNC(=N)N)C(=O)N[C@@H](CCCCN)C(=O)N[C@@H](CO)C(=O)N[C@@H](C)C(=O)N[C@H](C(=O)N[C@@H](CS)C(=O)N[C@@H](Cc1ccc(O)cc1)C(=O)N[C@@H](CCCCN)C(=O)O)C(C)C [3102.0220] (H-RLKSAVCYK-OH) has IC50 strictly less than 20 nM
Reply: criterion met

Task item: Answer whether the compound CC[C@H](C)[C@H](NC(=O)[C@@H](NC(=O)[C@@H](NC(=O)[C@H](CC(=O)O)NC(=O)[C@H](CCCCN)NC(=O)[C@@H](NC(=O)[C@H](C)N)C(C)C)C(C)C)[C@@H](C)O)C(=O)N[C@H](C(=O)N[C@@H](CCCCN)C(=O)O)[C@@H](C)O [3102.0067] (H-AVKDVTITK-OH) has IC50 strictly less than 20 nM
Reply: criterion met

Task item: Answer whether the compound C[C@H](NC(=O)[C@H](Cc1ccc(O)cc1)NC(=O)[C@H](CCCNC(=N)N)NC(=O)[C@H](Cc1ccc(O)cc1)NC(=O)[C@@H](NC(=O)[C@@H](N)CCCCN)[C@@H](C)O)C(=O)N[C@@H](Cc1ccccc1)C(=O)N[C@@H](CO)C(=O)N[C@@H](CCCCN)C(=O)O [3102.0120] (H-KTYRYAFSK-OH) has IC50 strictly less than 20 nM
Reply: criterion not met

Task item: Answer whether the compound CC[C@H](C)[C@H](NC(=O)[C@H](CC(N)=O)NC(=O)[C@H](Cc1ccccc1)NC(=O)[C@H](CCSC)NC(=O)[C@@H](N)CC(N)=O)C(=O)N[C@@H](CO)C(=O)N[C@@H](Cc1ccccc1)C(=O)N[C@@H](CCCNC(=N)N)C(=O)N[C@@H](Cc1ccccc1)C(=O)O [3102.0348] (H-NMFNISFRF-OH) has IC50 strictly less than 20 nM
Reply: criterion not met
